Tested on: hT2R8 (Homo sapiens (Human), UniProt Q9NYW2)
Sequence (Q9NYW2 whole entry): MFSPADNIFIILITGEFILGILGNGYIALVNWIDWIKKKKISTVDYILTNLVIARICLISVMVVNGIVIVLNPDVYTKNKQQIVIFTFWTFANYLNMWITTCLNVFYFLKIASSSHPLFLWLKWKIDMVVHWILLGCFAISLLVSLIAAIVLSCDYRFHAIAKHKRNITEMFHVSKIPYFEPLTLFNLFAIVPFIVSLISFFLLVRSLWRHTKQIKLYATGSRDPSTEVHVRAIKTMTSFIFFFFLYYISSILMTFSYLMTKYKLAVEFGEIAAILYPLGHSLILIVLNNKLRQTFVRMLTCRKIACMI
Experiment description: hT2R8 antagonist high-throughput FLIPR assay, stable cell line with G16g44, agonist andrographolide
Assay type: cell-based
Measurement context: table after Example 12-37; read-out: hT2R8 IC50
Entries and their IC50

- Compound: "Cc1noc(C)c1Cn1cc(N2C(=O)N(Cc3cccc(C#N)c3)C(C)(C)C2=O)cn1 [Example 12-42]"
  IC50: "90 nM"
- Compound: "Cc1noc(C)c1Cn1cc(N2C(=O)N(Cc3ccc(O)cc3)C(C)(C)C2=O)cn1 [Example 12-38]"
  IC50: "70 nM"
- Compound: "COc1ccc(OC)c(CN2C(=O)N(c3cnn(Cc4c(C)noc4C)c3)C(=O)C2(C)C)c1 [Example 12-54]"
  IC50: "200 nM"
- Compound: "Cc1noc(C)c1Cn1cc(N2C(=O)N(CCCc3ccccc3)C(C)(C)C2=O)cn1 [Example 12-78]"
  IC50: "580 nM"
- Compound: "Cc1noc(C)c1Cn1cc(N2C(=O)N(Cc3ccncc3)C(C)(C)C2=O)cn1 [Example 12-52]"
  IC50: "190 nM"
- Compound: "COc1ccc(CN2C(=O)N(c3cnn(Cc4c(C)noc4C)c3)C(=O)C2(C)C)cc1C [Example 12-76]"
  IC50: "540 nM"
- Compound: "Cc1noc(C)c1Cn1cc(N2C(=O)N(Cc3ccc(C#N)cc3)C(C)(C)C2=O)cn1 [Example 12-79]"
  IC50: "50 nM"
- Compound: "COc1cccc(CN2C(=O)N(c3cnn(Cc4c(C)noc4C)c3)C(=O)C2(C)C)n1 [Example 12-40]"
  IC50: "80 nM"
- Compound: "COc1ccc(CN2C(=O)N(c3cnn(Cc4c(C)noc4C)c3)C(=O)C2(C)C)nc1 [Example 12-51]"
  IC50: "190 nM"
- Compound: "Cc1noc(C)c1Cn1cc(N2C(=O)N(Cc3ccc(C(=O)O)cc3)C(C)(C)C2=O)cn1 [Example 12-89]"
  IC50: "2310 nM"
- Compound: "COc1cccc(CCN2C(=O)N(c3cnn(Cc4c(C)noc4C)c3)C(=O)C2(C)C)c1 [Example 12-60]"
  IC50: "250 nM"
- Compound: "COC(=O)COc1cccc(CN2C(=O)N(c3cnn(Cc4c(C)noc4C)c3)C(=O)C2(C)C)c1 [Example 12-75]"
  IC50: "530 nM"
- Compound: "COc1cccc(F)c1CN1C(=O)N(c2cnn(Cc3c(C)noc3C)c2)C(=O)C1(C)C [Example 12-65]"
  IC50: "310 nM"
- Compound: "Cc1noc(C)c1Cn1cc(N2C(=O)N(Cc3ccc(F)cc3F)C(C)(C)C2=O)cn1 [Example 12-74]"
  IC50: "530 nM"
- Compound: "Cc1noc(C)c1Cn1cc(N2C(=O)N(Cc3ccccc3)C(C)(C)C2=O)cn1 [Example 12-67]"
  IC50: "320 nM"
- Compound: "Cc1noc(C)c1Cn1cc(N2C(=O)N(Cc3cccc(OCCO)c3)C(C)(C)C2=O)cn1 [Example 12-63]"
  IC50: "280 nM"

---

Tested on: hT2R7 (Homo sapiens (Human), UniProt Q9NYW3)
Sequence (Q9NYW3 whole entry): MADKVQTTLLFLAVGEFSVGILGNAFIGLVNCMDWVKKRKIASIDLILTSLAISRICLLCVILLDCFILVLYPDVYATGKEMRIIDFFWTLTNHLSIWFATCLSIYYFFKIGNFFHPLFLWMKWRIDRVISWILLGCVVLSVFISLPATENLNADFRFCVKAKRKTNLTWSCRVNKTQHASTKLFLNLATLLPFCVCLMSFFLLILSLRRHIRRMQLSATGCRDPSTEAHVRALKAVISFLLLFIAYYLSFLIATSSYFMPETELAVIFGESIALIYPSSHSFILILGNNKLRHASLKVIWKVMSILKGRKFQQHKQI
Experiment description: hT2R panel inhibition, transient HEK293 G16g44, agonist Chloroquine pH6.5 10 mM
Type: cell-based
Measurement context: HEK293, compound at 25 μM; receptor activated to EC80 with agonist; read-out: inhibition of bitter receptor 7
Entries and their inhibition at 25 µM
Endpoint name: inhibition at 25 µM

- Smiles data: "CCN(C(=O)CN(C)S(=O)(=O)c1ccc2c(c1)n(C)c(=O)c(=O)n2C)c1cccc(C)c1"
  Tested on: "hT2R7 (Homo sapiens (Human), UniProt Q9NYW3)"
  Result: "20 to 40%"
- Smiles data: "Cc1cc2c(cc1S(=O)(=O)Nc1ccc(F)cc1)n(C)c(=O)c(=O)n2C"
  Tested on: "hT2R7 (Homo sapiens (Human), UniProt Q9NYW3)"
  Result: "20 to 40%"
- Smiles data: "CC(C)Oc1ccc(CN(Cc2ccccc2)S(=O)(=O)c2ccc(C(=O)O)cc2)cc1"
  Tested on: "hT2R7 (Homo sapiens (Human), UniProt Q9NYW3)"
  Result: "40 to 60%"
- Smiles data: "Cc1ccccc1NS(=O)(=O)c1ccc2c(c1)c(=O)n(C)c(=O)n2C"
  Tested on: "hT2R7 (Homo sapiens (Human), UniProt Q9NYW3)"
  Result: "40 to 60%"
- Smiles data: "CCOc1ccc(CN(Cc2ccccc2)S(=O)(=O)c2ccc(C(=O)O)cc2)cc1"
  Tested on: "hT2R7 (Homo sapiens (Human), UniProt Q9NYW3)"
  Result: "20 to 40%"
- Smiles data: "CCCOc1ccc(CN(Cc2ccccc2)S(=O)(=O)c2ccc(C(=O)O)cc2)cc1"
  Tested on: "hT2R7 (Homo sapiens (Human), UniProt Q9NYW3)"
  Result: "20 to 40%"
- Smiles data: "Cn1c(=O)c(=O)n(C)c2cc(S(=O)(=O)Nc3ccc(Cc4ccccn4)cc3)ccc21"
  Tested on: "hT2R7 (Homo sapiens (Human), UniProt Q9NYW3)"
  Result: "20 to 40%"
- Smiles data: "Cc1c(F)cccc1NS(=O)(=O)c1ccc2c(c1)c(=O)n(C)c(=O)n2C"
  Tested on: "hT2R7 (Homo sapiens (Human), UniProt Q9NYW3)"
  Result: "20 to 40%"

---

Tested on: UniProt P59537
Sequence (P59537 whole entry): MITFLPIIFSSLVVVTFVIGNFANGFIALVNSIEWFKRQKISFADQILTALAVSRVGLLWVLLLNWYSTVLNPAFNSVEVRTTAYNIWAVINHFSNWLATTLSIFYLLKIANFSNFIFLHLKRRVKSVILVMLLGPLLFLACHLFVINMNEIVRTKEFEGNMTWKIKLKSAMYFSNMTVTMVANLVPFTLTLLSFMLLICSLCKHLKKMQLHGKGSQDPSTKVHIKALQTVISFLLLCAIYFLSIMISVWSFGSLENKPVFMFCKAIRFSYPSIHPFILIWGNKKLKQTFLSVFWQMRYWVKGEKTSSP
Experiment description: hT2R panel inhibition, transient HEK293 G16g44, agonist Aristolochic Acid 25 nM
Format: cell-based
Measurement context: HEK293, compound at 25 μM; receptor activated to EC80 with the corresponding agonist; read-out: screening result against bitter receptor 61

- Molecule: "COc1ccc(CN(Cc2ccc(F)c(OC)c2)S(=O)(=O)c2ccc(C(=O)O)cc2)cc1 [Example 5-50]"
  Tested on: "UniProt P59537"
  inhibition at 25 µM: "> 80%"
- Molecule: "COc1ccc(CN(Cc2ccccc2)S(=O)(=O)c2ccc(-c3nn[nH]n3)cc2)cc1 [Example 5-46]"
  Tested on: "UniProt P59537"
  inhibition at 25 µM: "> 80%"
- Molecule: "O=C(O)c1ccc(S(=O)(=O)N(Cc2ccccc2)Cc2ccccc2)cc1 [Example 5-28, 4-(N,N-dibenzylsulfamoyl)benzoic acid]"
  Tested on: "UniProt P59537"
  inhibition at 25 µM: "40 to 60%"
- Molecule: "COc1ccc(C(NS(=O)(=O)c2ccc(C(=O)O)cc2)c2ccccc2)cc1 (stereo not drawn) [Example 5-97]"
  Tested on: "UniProt P59537"
  inhibition at 25 µM: "20 to 40%"
- Molecule: "Cc1ccccc1CN(Cc1ccccc1)S(=O)(=O)c1ccc(C(=O)O)cc1 [Example 5-80]"
  Tested on: "UniProt P59537"
  inhibition at 25 µM: "60 to 80%"
- Molecule: "COc1ccc(CN(Cc2cccc(OC)c2)S(=O)(=O)c2ccc(C(=O)O)cc2)cc1 [Example 5-34]"
  Tested on: "UniProt P59537"
  inhibition at 25 µM: "> 80%"
- Molecule: "COc1ccc(CCN(Cc2ccccc2)S(=O)(=O)c2ccc(C(=O)O)cc2)cc1 [Example 5-81]"
  Tested on: "UniProt P59537"
  inhibition at 25 µM: "60 to 80%"
- Molecule: "CCc1ccc(CN(Cc2ccccc2)S(=O)(=O)c2ccc(C(=O)O)cc2)cc1 [Example 5-85]"
  Tested on: "UniProt P59537"
  inhibition at 25 µM: "> 80%"
- Molecule: "COc1ccc(CN(CC2CCCCC2)S(=O)(=O)c2ccc(C(=O)O)cc2)cc1 [Example 5-23]"
  Tested on: "UniProt P59537"
  inhibition at 25 µM: "> 80%"
- Molecule: "COc1ccc(CN(Cc2ccccc2Cl)S(=O)(=O)c2ccc(C(=O)O)cc2)cc1 [Example 5-68]"
  Tested on: "UniProt P59537"
  inhibition at 25 µM: "60 to 80%"
- Molecule: "O=C(O)c1ccc(S(=O)(=O)N(Cc2ccccc2)Cc2ccc(Cl)cc2)cc1 [Example 5-77]"
  Tested on: "UniProt P59537"
  inhibition at 25 µM: "60 to 80%"
- Molecule: "CCCN(Cc1ccc(OC)cc1)S(=O)(=O)c1ccc(C(=O)O)cc1 [Example 5-17]"
  Tested on: "UniProt P59537"
  inhibition at 25 µM: "> 80%"
- Molecule: "N#Cc1ccc(CN(Cc2ccccc2)S(=O)(=O)c2ccc(C(=O)O)cc2)cc1 [Example 5-91]"
  Tested on: "UniProt P59537"
  inhibition at 25 µM: "> 80%"
- Molecule: "COc1cccc(CN(Cc2ccccc2)S(=O)(=O)c2ccc(C(=O)O)cc2)c1 [Example 5-74]"
  Tested on: "UniProt P59537"
  inhibition at 25 µM: "> 80%"
- Molecule: "COc1ccc(CN(Cc2ccccc2)S(=O)(=O)c2ccc(C(=O)O)cc2)cc1C [Example 5-89]"
  Tested on: "UniProt P59537"
  inhibition at 25 µM: "> 80%"
- Molecule: "COc1ccc(CN2C(=O)N(c3ccc(C(=O)O)cc3)C(=O)C2Cc2ccccc2)cc1 (stereo not drawn) [Example 5-98]"
  Tested on: "UniProt P59537"
  inhibition at 25 µM: "> 80%"
- Molecule: "COc1ccc(CN(Cc2cccc(C(=O)O)c2)S(=O)(=O)c2ccc(C(=O)O)cc2)cc1 [Example 5-82]"
  Tested on: "UniProt P59537"
  inhibition at 25 µM: "> 80%"
- Molecule: "O=C(O)c1ccc(S(=O)(=O)N(Cc2ccccc2)Cc2ccco2)cc1 [Example 5-5]"
  Tested on: "UniProt P59537"
  inhibition at 25 µM: "> 80%"
- Molecule: "COc1ccc(CN(Cc2ccccc2)S(=O)(=O)c2ccc(C(=O)O)cc2)cc1 [Example 5-1]"
  Tested on: "UniProt P59537"
  inhibition at 25 µM: "> 80%"
- Molecule: "COc1ccc(CN(C(C)c2ccccc2)S(=O)(=O)c2ccc(C(=O)O)cc2)cc1 (stereo not drawn) [Example 5-95]"
  Tested on: "UniProt P59537"
  inhibition at 25 µM: "> 80%"
- Molecule: "O=C(O)c1ccc(S(=O)(=O)N(Cc2ccccc2)Cc2ccc(O)cc2)cc1 [Example 5-99]"
  Tested on: "UniProt P59537"
  inhibition at 25 µM: "> 80%"
- Molecule: "COc1ccc(CN(Cc2ccsc2)S(=O)(=O)c2ccc(C(=O)O)cc2)cc1 [Example 5-62]"
  Tested on: "UniProt P59537"
  inhibition at 25 µM: "40 to 60%"
- Molecule: "CC(=O)Nc1ccc(S(=O)(=O)N(Cc2ccccc2)CC2CCC(C(=O)O)CC2)cc1 (stereo not drawn) [Example 5-21]"
  Tested on: "UniProt P59537"
  inhibition at 25 µM: "60 to 80%"
- Molecule: "COc1ccc(CN(Cc2ccc(NC(C)=O)cc2)S(=O)(=O)c2ccc(C(=O)O)cc2)cc1 [Example 5-26]"
  Tested on: "UniProt P59537"
  inhibition at 25 µM: "20 to 40%"
- Molecule: "COc1ccccc1CN(Cc1ccc(C(=O)O)cc1)S(=O)(=O)c1ccccc1 [Example 5-100]"
  Tested on: "UniProt P59537"
  inhibition at 25 µM: "60 to 80%"
- Molecule: "O=C(O)c1ccc(S(=O)(=O)N(Cc2ccccc2)Cc2cccc(Cl)c2)cc1 [Example 5-84]"
  Tested on: "UniProt P59537"
  inhibition at 25 µM: "> 80%"
- Molecule: "O=C(O)c1ccc(S(=O)(=O)N(Cc2ccccc2)Cc2cccc(F)c2)cc1 [Example 5-79]"
  Tested on: "UniProt P59537"
  inhibition at 25 µM: "> 80%"
- Molecule: "COc1ccc(CN(Cc2ccccc2)C(=O)Nc2ccc(C(=O)O)cc2)cc1 [Example 5-94]"
  Tested on: "UniProt P59537"
  inhibition at 25 µM: "20 to 40%"
- Molecule: "Cc1ccc(CN(Cc2ccccc2)S(=O)(=O)c2ccc(C(=O)O)cc2)cc1 [Example 5-70]"
  Tested on: "UniProt P59537"
  inhibition at 25 µM: "40 to 60%"
- Molecule: "COc1ccc(CN(c2ccccc2)S(=O)(=O)c2ccc(C(=O)O)cc2)cc1 [Example 5-18]"
  Tested on: "UniProt P59537"
  inhibition at 25 µM: "60 to 80%"
- Molecule: "CCN(Cc1ccc(OC)cc1)S(=O)(=O)c1ccc(C(=O)O)cc1 [Example 5-4]"
  Tested on: "UniProt P59537"
  inhibition at 25 µM: "20 to 40%"
- Molecule: "CCCOc1ccc(CN(Cc2ccco2)S(=O)(=O)c2ccc(C(=O)O)cc2)cc1 [Example 5-8]"
  Tested on: "UniProt P59537"
  inhibition at 25 µM: "60 to 80%"
- Molecule: "COc1ccc(CN(Cc2ccc(OC)c(F)c2)S(=O)(=O)c2ccc(C(=O)O)cc2)cc1 [Example 5-41]"
  Tested on: "UniProt P59537"
  inhibition at 25 µM: "> 80%"
